For each entry below, report its GC Abundance value.
assay: GC-MS headspace release profile of Tropical Fruit perfume in shampoo, 1/100 dilution in water; assay type: physicochemical; conditions: headspace at 40 seconds
One number for each entry.

// solved cases for GC Abundance follow
compound: CC/C=C\CCOC(=O)OC
reported: 3000
--
compound: CC(=O)OC(C)(C)Cc1ccccc1 [DIMETHYL BENZYL CARBINYL ACETATE]
reported: 8000
--
compound: CC(C)=CCCC(C)CCO (centres unmarked)
reported: 7000
--
compound: C=CCOC(=O)CCC1CCCCC1 [ALLYL CYCLOHEXYL PROPIONATE]
reported: 7000

Req: For OCc1ccccc1 , write its GC Abundance.
Resp: 50
